B1: COX4I1 (parent)
chain: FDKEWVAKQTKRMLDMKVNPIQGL

- Variants of: B1
- protocol text: protein stability index of a GFP-peptide fusion (GPS, HEK-293T) (PSI 1-6); higher = more stable;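 also: lentivirally expressed fusions sorted by FACS into six bins by GFP to DsRed ratio, PSI derived from sequencing read proportions per bin multiplied by bin number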
- measurement setup: c terminus: a fixed tail appended
readout type: protein stability index
Numbers only.

// below: answered variants
E4I
1.47
L24A
1.83
D15W
2.07
W5I
3.44
L24F
1.72
A7N
1.65

# return protein stability index for each item in the list
1. G23P
2. Q9V
3. M13D
4. V18T
5. K11Q
6. R12E

Given back:
[1.39, 1.46, 1.59, 2.24, 1.79, 2.59]
